- METHOD_NOTES: melting temperature; fluorescence melt of hairpins on a sequencing array, two-state fit, raised by 9.35 °C to match UV melts
- ASSAY_SETUP: sodium 0.088 M
Rule: Tm below 50 °C gives yes. Equal to or above 50 °C gives no.

// known answers, use as guide
GGGCAACGAAAGTTACCC (((.(((....))).)))    no
GATTGAGGAAACTCGATC (((.(((....))).)))    yes
GCGCCGCGAAAGCGTAGC ((..(((....)))..))    no
GCTTCTGGAAACAGAGGC ((.((((....)))).))    yes

Here is another sequence to look at.
# strict comparison: is reported Tm < 50 °C? input = GAATGCACGAAAGTGTTC (((..(((....))))))
yes

###

- METHOD_NOTES: melting temperature; fluorescence melt of hairpins on a sequencing array, two-state fit, raised by 9.35 °C to match UV melts
- ASSAY_SETUP: sodium 0.088 M
# reported Tm; entries follow
Number in °C, nothing else.

GATCCAGGTATGGATC ((((((....))))))    58
TCAGTGAAAACTGA (((((....)))))    42.6
CGGATACGGAAACGTCCG (((..(((....))))))    40.4
GATCCTGGTGAGGATC ((((((....))))))    52.5
GATCCCAGCAGGGATC ((((((....))))))    66.3
GTCCCGGGAAACTGGGGC (.(((.(....).))).)    48.6

Look at this sequence and give its reported Tm. GATCCACCTGTGGATC ((((((....))))))
63.8

###

- METHOD_NOTES: folding enthalpy; higher = less favourable; fluorescence melt of hairpins on a sequencing array, two-state fit
- ASSAY_SETUP: sodium 0.088 M
# folding enthalpy per entry
Reply with just the number (in kcal/mol).

GATCAGCAGCCTGATC ((((((....))))))    -36.5
GCAGCAGGAAACCGCTAC (.(((.(....).))).)    -14.6
GATCCTTCCAAGGATC ((((((....))))))    -47
GTTACGACGAAAGTCAAC (((..(((....))))))    -12.3
GTGGAGGGAAACCTCCAC (((((((....)))))))    -40.9

# evaluate next
Item GTCAATCGAAAGATGAC (((.(((....)))))) has what recorded folding enthalpy?
-25.7

###

- METHOD_NOTES: folding enthalpy; higher = less favourable; fluorescence melt of hairpins on a sequencing array, two-state fit
- ASSAY_SETUP: sodium 0.088 M
MEASUREMENT_NAME: folding enthalpy (kcal/mol)
Write the answer as a number in kcal/mol, unit excluded.

Use the examples below as a reference point.
GGTGCCGGAAACGGCGTC (..((((....))))..)    -9.71
CGAACGGAAACGTTTCG ((((((....))).)))    -26.2
GTGTGAGGAAACTTGCAC (((..((....))..)))    -28

What measured folding enthalpy goes with GATCTCCATGAGATC ((((((...)))))) ?
-42.1

What measured folding enthalpy goes with GATCCTCTTAAGGATC ((((((....)))))) ?
-42.5

# input sequence: GATCGAACTTTCGATC ((((((....)))))) ; wanted: its folding enthalpy
-35.6

So what does the record say about folding enthalpy for GAAACCGAAAGGTATTC ((((((....))).))) ?
-14.1

For the sequence GCGGTGCGAAAGCAGTGC ((..(((....)))..)) , what folding enthalpy is on record?
-23.5
